Test system: human breast adenocarcinoma cells MDA-MB-231
Assay: cells
Type: cell-based
Details: 24 h
Non-standard residues stand in square brackets, D forms with d. Residues, ends and D or L forms follow the SMILES beside them. *: point of attachment. Myristoyl = CCCCCCCCCCCCCC(=O)*; Octanoyl = CCCCCCCC(=O)*; NH(CH2)4NH2 = NCCCCN*
QUANTITY: IC50

Completed entries (count: 2):
COMPOUND: CCCCCCCC(=O)N[C@H](C(=O)N[C@@H](Cc1ccccc1)C(=O)N[C@@H](CCC(=O)O)C(=O)N[C@H](C(=O)N[C@@H](C)C(=O)NCCCCN)[C@@H](C)CC)C(C)C [Compound 31] (Octanoyl-VFEIA-{NH(CH2)4NH2}; N-terminus assumed)
OBSERVED MEASUREMENT: 169 µM

COMPOUND: CSCC[C@@H](N)C(=O)N[C@H](CC(N)=O)C(=O)N1CCC[C@H]1C(=O)N[C@H](C(=O)N[C@H](Cc1ccccc1)C(=O)N1CCC[C@H]1C(=O)N[C@@H](Cc1c[nH]c2ccccc12)C(=O)N[C@@H](C(=O)N[C@@H](C)C(=O)N[C@H](C)C(=O)N[C@@H](CO)C(=O)N[C@@H](C)C(=O)NCCCCN)C(C)C)C(C)C [Compound 1, Glidonin A] (H-[dM][dN]PV[dF]PW[dV]A[dA]SA-{NH(CH2)4NH2})
OBSERVED MEASUREMENT: > 20 µM

Now for the compound whose IC50 we want.
Request - read-out IC50 | tested on human breast adenocarcinoma cells MDA-MB-231 | compound CCCCCCCCCCCCCC(=O)N[C@H](CCSC)C(=O)N[C@H](CC(N)=O)C(=O)N1CCC[C@H]1C(=O)N[C@H](C(=O)N[C@H](Cc1ccccc1)C(=O)N1CCC[C@H]1C(=O)N[C@@H](Cc1c[nH]c2ccccc12)C(=O)N[C@@H](C(=O)N[C@@H](C)C(=O)N[C@H](C)C(=O)N[C@@H](CO)C(=O)N[C@@H](C)C(=O)NCCCCN)C(C)C)C(C)C [Compound 10, Glidonin J] (Myristoyl-[dM][dN]PV[dF]PW[dV]A[dA]SA-{NH(CH2)4NH2})
7.2 µM

Measured values drawn from paper PMC10587159 for this set.
